The values you see were collected from PubChem BioAssay AID596.

Target: Microtubule-associated protein tau (Homo sapiens) (UniProt P10636)
Sequence (P10636 whole entry, looked up): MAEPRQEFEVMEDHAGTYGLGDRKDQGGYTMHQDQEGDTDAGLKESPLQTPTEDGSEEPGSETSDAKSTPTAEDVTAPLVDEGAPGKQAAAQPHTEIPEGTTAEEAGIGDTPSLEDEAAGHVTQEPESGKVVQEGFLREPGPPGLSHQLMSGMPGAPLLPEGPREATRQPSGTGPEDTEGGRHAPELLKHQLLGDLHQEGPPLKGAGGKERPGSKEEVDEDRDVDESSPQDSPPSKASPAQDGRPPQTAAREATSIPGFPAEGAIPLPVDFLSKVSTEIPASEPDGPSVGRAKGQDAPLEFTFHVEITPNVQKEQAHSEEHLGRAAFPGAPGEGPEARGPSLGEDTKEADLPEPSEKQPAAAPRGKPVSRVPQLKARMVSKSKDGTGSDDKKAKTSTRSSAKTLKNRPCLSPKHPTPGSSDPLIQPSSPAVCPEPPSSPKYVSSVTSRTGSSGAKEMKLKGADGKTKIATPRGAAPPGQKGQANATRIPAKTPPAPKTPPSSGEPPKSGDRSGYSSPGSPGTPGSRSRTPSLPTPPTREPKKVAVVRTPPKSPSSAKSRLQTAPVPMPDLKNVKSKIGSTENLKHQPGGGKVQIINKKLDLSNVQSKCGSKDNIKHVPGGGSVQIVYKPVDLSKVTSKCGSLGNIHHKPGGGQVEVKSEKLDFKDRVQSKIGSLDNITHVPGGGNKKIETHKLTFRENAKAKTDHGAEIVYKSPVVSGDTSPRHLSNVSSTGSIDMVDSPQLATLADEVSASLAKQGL
Assay: qHTS Assay for Tau Filament Binding;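 also: actives lower thioflavin S fluorescence by blocking filaments or displacing dye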
Conditions: recombinant tau filaments, thioflavin S fluorescence, 15 h; series mostly up to 57.1 µM
Screen size: about 71,000 compounds; about 1,400 (2%) were called active. Inconclusive results (about 3%) are left out. Calls follow the shape of the dose curve; as a rule, active = well fitted curve in the direction sought with a large enough effect; inconclusive = small, poorly fitted or top-dose-only effect; inactive = no such curve, though single readings can be large or run the other way. The full list was thinned out, with actives kept by preference.
Outcome field: choose from 1 (active), -1 (inactive)

Example cases with answers are listed next.
• Clc1cccc(Cl)c1Cl = -1
• CC(C)(C)C(O)(CCc1ccc(Cl)cc1)Cn1cncn1 (stereo not given) = -1
• ClCCBr = -1
• CCCCC#N = -1
• CC(C)CC(C)Nc1ccc(Nc2ccccc2)cc1 (stereo not given) = 1

Consider the record given below.
How was `CC(C)(Cc1c[nH]c2ccc(Cl)cc12)NCCOc1ccccc1OCC1CC1` classified in this test? -1

---

Target: Microtubule-associated protein tau (Homo sapiens)
Assay: qHTS Assay for Tau Filament Binding;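 also: actives lower thioflavin S fluorescence by blocking filaments or displacing dye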; also: potency is read from the fitted curve at half-maximal effect
Settings: recombinant tau filaments, thioflavin S fluorescence, 15 h; series mostly up to 57.1 µM
Screen size: about 71,000 compounds; about 1,400 (2%) were called active. Another 3% or so got no clear call; they are omitted. The full list was thinned out, with actives kept by preference.
outcome-measure: Potency

- C[C@]12CC[C@H](O)C[C@@H]1CC[C@H]1[C@H]2CC[C@]2(C)C(=O)CC[C@@H]12: inactive
- Fc1ccc(C(OCCN2CCN(C/C=C\c3ccccc3)CC2)c2ccc(F)cc2)cc1: 12.6 µM (active)
- Nc1ccc(Cc2ccc(N)c(Cl)c2)cc1Cl: inactive
- c1ccc(N2CC[C@@]3(CCCNC3)C2)nc1: inactive
